Experiment: CREB reporter modulators without forskolin, primary screen, cell-based, PC12, CRE-LacZ reporter, unstimulated (AID 1145)
Conditions: no forskolin, luminescence, 4.5 h, higher = more signal, called active from +8 up or from −8 down
Experimental readout: z-score
Reply: number alone, nothing else.

C#CCCCON=C1C[C@@H](O)[C@@H](O)[C@@H]2[C@@H]3C(=O)N(Cc4ccc5c(c4)OCO5)C(=O)[C@@H]3CC[C@H]12 = -0.657
C=CC[C@]1(C(=O)N2CCCCC2)N=C(c2ccc(OCCCO)cc2)O[C@H]1c1ccccc1N=[N+]=[N-] = -0.174
CO[C@@H]1COC(=O)[C@H](C)NC(=O)CC=C[C@@H](C)[C@H](OC)COC(=O)[C@H](C)NC(=O)CC=C[C@H]1C = -0.205
C=CCOC(=O)[C@@H]1[C@H]2C(=O)O[C@H](c3ccccc3)[C@H](c3ccccc3)N2[C@H](c2ccc(OCCOC(=O)[C@H]3C[C@H]4C(=O)N[C@@H](CCCCNC(C)=O)C(=O)N4[C@H]3c3ccc(O)cc3)cc2)[C@@]12C(=O)Nc1ccc(I)cc12 = 0.549
COc1ccc([C@H]2C[C@H]3C(Br)=C[C@]2(OC)C(=O)[C@]32CO2)cc1 = 0.586

# z-score lookup, item Cc1ccc(S[C@]2(C(=O)NC(C)C)CC(=O)N(C3Cc4ccccc4C3)[C@@H]2c2ccc(CO)cc2)cc1 -0.231

---

Molecular target: Calmodulin-1 (Homo sapiens)
Assay: calcium-bound CALM1 binders on microarrays, profiling panel, artefact control for SMM control-protein annotation, biochemical, small-molecule microarray, Cy5-labelled CALM1, plus calcium (AID 1112);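 also: score merges spot fluorescence with signal to noise from triplicate slides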
Conditions: Cy5-CALM1 binding fluorescence, higher = more signal
Here the recorded composite z-score is given for each entry.
Reply: number alone, nothing else.

CC(C)[Si](OCC[C@H]1O[C@]2(C(=O)N(Cc3ccccc3)c3ccccc32)[C@@H](C)[C@@H]1[Si](C)(C)O)(C(C)C)C(C)C = 0.3
C=CCC1=C[C@H]2[C@H]([C@@H]3C=C[C@]2(CC=C)C(=O)[C@]32CO2)[C@@]2(CO2)C1=O = -2.27
CN(C)C(=O)[C@@]1(Cc2ccccc2N=[N+]=[N-])N=C(c2ccc(OCCCO)cc2)O[C@H]1c1ccccc1CN=[N+]=[N-] = 1.22

// switching to the query compound
# composite z-score lookup, item CO[C@H]1COC(=O)[C@H](C)COC(=O)[C@H](Cc2ccccc2)NC(=O)CC=C[C@H]1C -1.74

---

Test: small-molecule binders of probe aNOTCH3, primary screen, biochemical, small-molecule microarray, 635/667 nm fluorescence (AID 1120);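 also: probe is a biotin-tagged antibody raised against NOTCH3 rather than NOTCH3 protein; score merges spot fluorescence near 667 nm with spot signal to noise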
Conditions: higher = more signal
Tick 1 if composite z-score is 0.1 or greater. Tick 0 if composite z-score is less than 0.1.

# example entries with known answers
COC(=O)Cn1c(C(=O)N2CCCC2)cc2c1C[C@H]1CN(C(=O)c3ccccc3)[C@@](Cc3ccccc3)(C(=O)OC)[C@@H]21 = 0
CC(C)(C)OC(=O)CC[C@]1(C(=O)NCCN2CCOCC2)N=C(c2ccc(OCCCO)cc2)O[C@H]1c1ccccc1CN=[N+]=[N-] = 1
COc1ccc(-c2cc3c(c(-c4ccccc4)n2)[Si](C(C)C)(C(C)C)O[C@H]3c2ccccc2)cn1 = 1
CCN1C(C)=C(C(=O)OC)[C@@H](c2ccccc2)N2C(=O)[C@](O)(C(=O)OC)[C@@H](c3ccccc3)C(C(C)=O)=C12 = 1
O=C1O[C@@H](c2ccccc2)[C@@H](c2ccccc2)N2[C@@H](c3ccccc3OCCO)[C@]3(C(=O)Nc4ccc(C#CC5=CCCCC5)cc43)[C@@H](C(=O)O)[C@H]12 = 0

For this compound, is measured composite z-score 0.1 or higher? Cc1ccc(N2C(=O)c3ccccc3[C@](C)(C(=O)NCC(C)C)[C@@H]2c2ccc(CO)cc2)nc1 0

For this compound, is measured composite z-score 0.1 or higher? Cc1ccc(N2C(=O)c3ccccc3[C@](C)(C(=O)O)[C@@H]2c2ccc(CO)cc2)nc1 0

For this compound, is measured composite z-score 0.1 or higher? C[C@@H]1CC[C@H]2C(=O)N3CCC[C@H]3C(=O)N2[C@H]1c1ccc(Br)cc1 0

For this compound, is measured composite z-score 0.1 or higher? [N-]=[N+]=NCc1ccccc1C[C@]1(C(N)=O)N=C(c2ccc(OCCCO)cc2)O[C@H]1c1ccccc1CN=[N+]=[N-] 0

For this compound, is measured composite z-score 0.1 or higher? CC1CC/C=C\[C@H]2OC34C=CCN(Cn5nnc6ccccc65)C(=O)[C@H]3N(C(C)CO)C(=O)[C@@H]4C2C(=O)O1 (some centres undefined) 0

For this compound, is measured composite z-score 0.1 or higher? C=CCN1C(=O)[C@]2(O[C@H](CCn3cc(CCO)nn3)[C@@H]([Si](C)(C)c3ccc(OC)cc3)[C@@H]2C)c2cc(NC(=O)c3ccc(OC)cc3)ccc21 1

For this compound, is measured composite z-score 0.1 or higher? C=CC[C@]1(C(=O)N2CCCCC2)N=C(c2ccc(OCCCO)cc2)O[C@H]1c1ccccc1N=[N+]=[N-] 1

For this compound, is measured composite z-score 0.1 or higher? COC(=O)[C@@]1(Cc2ccccc2)[C@H]2c3cc(C(=O)N4CCCC4)n(CCN4CNCC4=O)c3C[C@H]2CN1C(=O)c1ccccc1 1

For this compound, is measured composite z-score 0.1 or higher? COc1ccc([Si](C)(C)[C@@H]2[C@@H](CCO)O[C@]3(C(=O)N(Cc4ccccc4)c4ccccc43)[C@H]2C)cc1 0
